Cited source for all entries: patent US8383581B2

# method-summary: Stability of peptides in simulated gastric fluid (pH 1.5; HCl, NaCl and Pepsin)
# Type: in vitro ADME
# experimental-context: simulated gastric fluid, 24 h, 2 μM, pH 1.5
Where a SMILES comes first, the peptide text is derived from it. [ ]: non-standard residue; d: D form. ξ: configuration not given here. ξBip(2'-Et-4'-OMe) = CCc1cc(OC)ccc1-c1ccc(CC(N)C(=O)O)cc1; Arg(NO2) = N=C(NCCC[C@H](N)C(=O)O)N[N+](=O)[O-]; αMePhe(2,6-F2) = C[C@](N)(Cc1c(F)cccc1F)C(=O)O; ξαMePhe(2,6-F2) = CC(N)(Cc1c(F)cccc1F)C(=O)O; αMePhe(2-F) = C[C@](N)(Cc1ccccc1F)C(=O)O; ξαMePhe(2-F) = CC(N)(Cc1ccccc1F)C(=O)O; hhPhe = N[C@@H](CCCc1ccccc1)C(=O)O; hArg = N=C(N)NCCCC[C@H](N)C(=O)O; Cit = NC(=O)NCCC[C@H](N)C(=O)O; ξαMeF = CC(N)(Cc1ccccc1)C(=O)O; Nle = CCCC[C@H](N)C(=O)O; Orn = NCCC[C@H](N)C(=O)O; ξαMeP = CC1(C(=O)O)CCCN1; Ac5c = NC1(C(=O)O)CCCC1; Ac3c = NC1(C(=O)O)CC1; Aib = CC(C)(N)C(=O)O
Item-by-item account of % degradation of peptides in 24 h when incubated with simulated gastric fluid
reported-metric: % degradation of peptides in 24 h when incubated with simulated gastric fluid (%)

compound	units-label	measured
CCCC[C@H](NC(=O)C(C)(Cc1ccccc1F)NC(=O)[C@H](CCC(N)=O)NC(=O)[C@@H](NC(=O)[C@H](CCC(=O)O)NC(=O)C(C)(C)NC(=O)[C@@H](NC(=O)C1(N)CC1)C(C)C)[C@@H](C)CC)C(=O)N[C@@H](Cc1c[nH]cn1)C(=O)N[C@@H](CCC(N)=O)C(=O)N[C@@H](CCCCNC(=N)N)C(=O)NC(C)(C)C(=O)N[C@@H](CCCCN)C(=O)NC(C)(Cc1c(F)cccc1F)C(N)=O (some centres unmarked) [Seq. ID. 95] (H-[Ac3c]V[Aib]EIQ[ξαMePhe(2-F)][Nle]HQ[hArg][Aib]K[ξαMePhe(2,6-F2)]-NH2)	%	100
CCCC[C@H](NC(=O)C(C)(Cc1ccccc1F)NC(=O)[C@H](CCC(N)=O)NC(=O)[C@@H](NC(=O)[C@H](CCC(=O)O)NC(=O)C1(NC(=O)[C@@H](NC(=O)C2(N)CCCC2)C(C)C)CCCC1)[C@@H](C)CC)C(=O)N[C@@H](Cc1c[nH]cn1)C(=O)N[C@@H](CCC(N)=O)C(=O)N[C@@H](CCCCNC(=N)N)C(=O)N1CCCC1(C)C(=O)N[C@@H](CCCCN)C(=O)NC(C)(Cc1c(F)cccc1F)C(N)=O (some centres unmarked) [Seq. ID. 100] (H-[Ac5c]V[Ac5c]EIQ[ξαMePhe(2-F)][Nle]HQ[hArg][ξαMeP]K[ξαMePhe(2,6-F2)]-NH2)	%	49
CCCC[C@H](NC(=O)C(C)(Cc1ccccc1F)NC(=O)[C@H](CCC(N)=O)NC(=O)[C@@H](NC(=O)[C@H](CCC(=O)O)NC(=O)C(C)(C)NC(=O)[C@@H](NC(=O)C(C)(C)N)C(C)C)[C@@H](C)CC)C(=O)N[C@@H](Cc1c[nH]cn1)C(=O)N[C@@H](CCC(N)=O)C(=O)N[C@@H](CCCNC(N)=O)C(=O)N[C@@H](C)C(=O)N[C@@H](CCCNC(N)=O)C(=O)NC(C)(Cc1ccccc1F)C(N)=O (some centres unmarked) [Seq. ID. 345] (H-[Aib]V[Aib]EIQ[ξαMePhe(2-F)][Nle]HQ[Cit]A[Cit][ξαMePhe(2-F)]-NH2)	%	100
CCCC[C@H](NC(=O)C(C)(Cc1ccccc1F)NC(=O)[C@H](CCC(N)=O)NC(=O)[C@@H](NC(=O)[C@H](CCC(=O)O)NC(=O)C(C)(C)NC(=O)[C@@H](NC(=O)C1(N)CCCC1)C(C)C)[C@@H](C)CC)C(=O)N[C@@H](Cc1c[nH]cn1)C(=O)N[C@@H](CCC(N)=O)C(=O)N[C@@H](CCCCNC(=N)N)C(=O)NC(C)(C)C(=O)N[C@@H](CCCNC(=N)N[N+](=O)[O-])C(=O)NC(C)(Cc1ccccc1F)C(N)=O (some centres unmarked) [Seq. ID. 250] (H-[Ac5c]V[Aib]EIQ[ξαMePhe(2-F)][Nle]HQ[hArg][Aib][Arg(NO2)][ξαMePhe(2-F)]-NH2)	%	14
CCCC[C@H](NC(=O)C(C)(Cc1ccccc1F)NC(=O)[C@H](CCC(N)=O)NC(=O)[C@@H](NC(=O)[C@H](CCC(=O)O)NC(=O)C1(NC(=O)[C@@H](NC(=O)C2(N)CCCC2)C(C)C)CCCC1)[C@@H](C)CC)C(=O)N[C@@H](Cc1c[nH]cn1)C(=O)N[C@@H](CCC(N)=O)C(=O)N[C@@H](CCCCNC(=N)N)C(=O)N1CCCC1(C)C(=O)N[C@@H](CCCCN)C(=O)NC(C)(Cc1ccccc1)C(N)=O (some centres unmarked) [Seq. ID. 34] (H-[Ac5c]V[Ac5c]EIQ[ξαMePhe(2-F)][Nle]HQ[hArg][ξαMeP]K[ξαMeF]-NH2)	%	15
CCCC[C@H](NC(=O)[C@](C)(Cc1c(F)cccc1F)NC(=O)[C@H](CCC(N)=O)NC(=O)[C@@H](NC(=O)[C@H](CCC(=O)O)NC(=O)C(C)(C)NC(=O)[C@@H](NC(=O)C(C)(C)N)C(C)C)[C@@H](C)CC)C(=O)N[C@@H](Cc1c[nH]cn1)C(=O)N[C@@H](CCC(N)=O)C(=O)NC(C)(C)C(=O)NC(C)(C)C(=O)N[C@@H](CCCNC(N)=O)C(=O)N[C@@](C)(Cc1c(F)cccc1F)C(N)=O [Seq. ID. 550] (H-[Aib]V[Aib]EIQ[αMePhe(2,6-F2)][Nle]HQ[Aib][Aib][Cit][αMePhe(2,6-F2)]-NH2)	%	13
CCCC[C@H](NC(=O)[C@H](CC(C)C)NC(=O)[C@H](CCC(N)=O)NC(=O)[C@@H](NC(=O)[C@H](CCC(=O)O)NC(=O)C(C)(C)NC(=O)[C@@H](NC(=O)C(C)(C)N)C(C)C)[C@@H](C)CC)C(=O)N[C@@H](Cc1c[nH]cn1)C(=O)N[C@@H](CCC(N)=O)C(=O)N[C@@H](CCCN)C(=O)N[C@@H](C)C(=O)NC(C)(C)C(=O)NC(Cc1ccc(-c2ccc(OC)cc2CC)cc1)C(=O)N[C@@H](CCCc1ccccc1)C(N)=O (some centres unmarked) [Seq. ID. 750] (H-[Aib]V[Aib]EIQL[Nle]HQ[Orn]A[Aib][ξBip(2'-Et-4'-OMe)][hhPhe]-NH2)	%	45
CCCC[C@H](NC(=O)[C@](C)(Cc1c(F)cccc1F)NC(=O)[C@H](CCC(N)=O)NC(=O)[C@@H](NC(=O)[C@H](CCC(=O)O)NC(=O)C(C)(C)NC(=O)[C@@H](NC(=O)C1(N)CCCC1)C(C)C)[C@@H](C)CC)C(=O)N[C@@H](Cc1c[nH]cn1)C(=O)N[C@@H](CCC(N)=O)C(=O)N[C@@H](CCCCNC(=N)N)C(=O)NC(C)(C)C(=O)N[C@@H](CCCCN)C(=O)N[C@@](C)(Cc1ccccc1F)C(N)=O [Seq. ID. 85] (H-[Ac5c]V[Aib]EIQ[αMePhe(2,6-F2)][Nle]HQ[hArg][Aib]K[αMePhe(2-F)]-NH2)	%	100
